Numbers sourced from ChEMBL document CHEMBL1961873.

target: Serine/threonine-protein kinase SIK1 (Homo sapiens); details: at 0.1 µM
Please provide measured inhibition for the entries that follow.
Just the number please, in %, no unit attached.

Request - read-out inhibition | tested on Serine/threonine-protein kinase SIK1 (Homo sapiens) | compound CN(C)c1cc2c(Nc3ccc4c(cnn4Cc4ccccc4)c3)ncnc2cn1
3.9

Request - read-out inhibition | tested on Serine/threonine-protein kinase SIK1 (Homo sapiens) | compound Cc1ccc(O)cc1Nc1ccnc2ccc(S(C)(=O)=O)cc12
47.2

Request - read-out inhibition | tested on Serine/threonine-protein kinase SIK1 (Homo sapiens) | compound O=S(=O)(CCOCc1ccc(-c2ccc3ncnc(Nc4ccc(OCc5cccc(F)c5)c(Cl)c4)c3c2)o1)c1ccccc1
3.79

Request - read-out inhibition | tested on Serine/threonine-protein kinase SIK1 (Homo sapiens) | compound CCOc1nccc2c1nc(-c1nonc1N)n2CC
4.04

Request - read-out inhibition | tested on Serine/threonine-protein kinase SIK1 (Homo sapiens) | compound NS(=O)(=O)c1cccc(Nc2cc(-c3ccc(F)cc3)n[nH]2)c1
7.9

Request - read-out inhibition | tested on Serine/threonine-protein kinase SIK1 (Homo sapiens) | compound COc1cc2ncnc(Nc3ccc(C)c(O)c3)c2cc1OC
5.14

Request - read-out inhibition | tested on Serine/threonine-protein kinase SIK1 (Homo sapiens) | compound Oc1cccc(-c2nc(-c3ccccc3)[nH]c2-c2ccncc2)c1
8.44

Request - read-out inhibition | tested on Serine/threonine-protein kinase SIK1 (Homo sapiens) | compound Cc1ccc(NC(=O)CC2CC2)cc1-c1ccc(C(=O)NCC2CC2)cc1
3.64

Request - read-out inhibition | tested on Serine/threonine-protein kinase SIK1 (Homo sapiens) | compound COc1cccc(-n2ncc3c(N/N=C/c4ccc(S(C)(=O)=O)cc4)ncnc32)c1
4.24

Request - read-out inhibition | tested on Serine/threonine-protein kinase SIK1 (Homo sapiens) | compound FC(F)(F)c1ccc(-c2nn3ncccc3c2-c2ccnc(Nc3ccc4c(c3)OCCO4)n2)cc1;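 also: reported as mean inhibition, part of the GSK PKIS screen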
-4.38

###

Please provide measured inhibition for the entries that follow.
target: Fibroblast growth factor receptor 4 (Homo sapiens) (UniProt P22455); details: at 0.1 µM;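 also: values are mean percent inhibition of FGFR4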
Sequence (P22455 22-802 limits assumed): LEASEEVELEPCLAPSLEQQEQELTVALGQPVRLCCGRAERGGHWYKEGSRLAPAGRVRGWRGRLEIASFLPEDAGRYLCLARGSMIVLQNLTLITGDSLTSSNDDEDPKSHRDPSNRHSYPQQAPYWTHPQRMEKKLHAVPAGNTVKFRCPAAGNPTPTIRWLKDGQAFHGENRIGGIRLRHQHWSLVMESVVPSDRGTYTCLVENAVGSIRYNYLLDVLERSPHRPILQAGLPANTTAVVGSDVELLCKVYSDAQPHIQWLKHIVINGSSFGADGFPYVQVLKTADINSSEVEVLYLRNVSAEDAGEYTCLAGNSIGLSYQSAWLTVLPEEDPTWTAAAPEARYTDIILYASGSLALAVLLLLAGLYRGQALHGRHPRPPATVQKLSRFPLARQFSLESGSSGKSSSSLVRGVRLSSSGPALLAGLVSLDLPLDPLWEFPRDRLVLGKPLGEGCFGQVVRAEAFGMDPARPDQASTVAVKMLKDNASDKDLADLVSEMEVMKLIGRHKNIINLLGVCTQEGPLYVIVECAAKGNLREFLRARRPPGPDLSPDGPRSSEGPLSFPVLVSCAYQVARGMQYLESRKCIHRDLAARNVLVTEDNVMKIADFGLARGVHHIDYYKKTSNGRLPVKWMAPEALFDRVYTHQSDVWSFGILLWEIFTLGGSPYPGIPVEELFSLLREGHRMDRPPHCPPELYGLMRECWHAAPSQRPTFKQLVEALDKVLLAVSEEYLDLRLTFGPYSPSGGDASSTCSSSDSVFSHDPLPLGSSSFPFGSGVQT
Just the number please, in %, no unit attached.

What does the record list as inhibition for NS(=O)(=O)c1cccc(-c2cc3ccncc3cc2OCc2ccccc2)c1 ?
0.02

What does the record list as inhibition for N#Cc1c(NC(=O)c2ccccc2F)sc2c1CCCC2 ?
1.12

What does the record list as inhibition for CN(C)C(=O)O[C@H]1CN[C@H](C#Cc2cc3ncnc(Nc4ccc(OCc5cccc(F)c5)c(Cl)c4)c3s2)C1 ?
0.8

What does the record list as inhibition for CCS(=O)(=O)c1ccc(OC)c(Nc2nccc(N(C)c3ccc4c(C)n[nH]c4c3)n2)c1 ?
-0.42

What does the record list as inhibition for Cc1cc(-c2ccccn2)cc(C)c1/C=C/c1cncc(-c2nn[nH]n2)c1 ?
2.42

What does the record list as inhibition for COc1ccc2ncnc(Nc3ccc(OCc4ccccc4)cc3)c2c1 ?
1.47

What does the record list as inhibition for Cc1ccc(O)cc1Nc1ccnc2ccc(S(C)(=O)=O)cc12 ?
-0.45

What does the record list as inhibition for Nc1ccc(C#Cc2cncnc2Nc2ccc(OCc3cccc(F)c3)c(Cl)c2)cc1 ?
2.37

What does the record list as inhibition for Oc1cccc(-c2nc(-c3ccccc3)[nH]c2-c2ccncc2)c1 ?
1.36

What does the record list as inhibition for Nc1nccc(C#Cc2cncnc2Nc2ccc(OCc3cccc(F)c3)c(Cl)c2)n1 ?
2.52

###

target: Insulin-like growth factor 1 receptor (Homo sapiens) (UniProt P08069); details: at 0.1 µM;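 also: values are mean percent inhibition of IGF1R kinase activity, from the GSK published kinase inhibitor set (PKIS) screening panel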
Sequence (P08069 31-736 limits assumed): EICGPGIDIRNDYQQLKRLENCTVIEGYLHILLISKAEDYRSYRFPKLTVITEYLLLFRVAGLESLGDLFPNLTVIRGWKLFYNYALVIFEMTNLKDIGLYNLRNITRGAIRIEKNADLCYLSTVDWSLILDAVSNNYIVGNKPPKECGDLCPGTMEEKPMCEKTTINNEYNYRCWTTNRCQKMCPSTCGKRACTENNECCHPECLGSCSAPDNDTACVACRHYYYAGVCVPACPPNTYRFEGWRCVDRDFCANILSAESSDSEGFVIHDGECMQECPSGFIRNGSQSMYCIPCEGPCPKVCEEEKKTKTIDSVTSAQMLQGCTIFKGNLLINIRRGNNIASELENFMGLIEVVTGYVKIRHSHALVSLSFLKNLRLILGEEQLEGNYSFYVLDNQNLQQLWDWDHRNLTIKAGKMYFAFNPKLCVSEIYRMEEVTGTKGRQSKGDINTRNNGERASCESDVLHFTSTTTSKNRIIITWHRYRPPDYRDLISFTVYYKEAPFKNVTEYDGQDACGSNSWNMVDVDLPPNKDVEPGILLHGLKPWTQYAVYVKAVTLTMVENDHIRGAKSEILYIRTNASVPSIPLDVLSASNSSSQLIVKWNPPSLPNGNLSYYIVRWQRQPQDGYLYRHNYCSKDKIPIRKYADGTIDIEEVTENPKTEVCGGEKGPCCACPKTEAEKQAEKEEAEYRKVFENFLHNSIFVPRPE
Sequence (P08069 741-1367 limits assumed): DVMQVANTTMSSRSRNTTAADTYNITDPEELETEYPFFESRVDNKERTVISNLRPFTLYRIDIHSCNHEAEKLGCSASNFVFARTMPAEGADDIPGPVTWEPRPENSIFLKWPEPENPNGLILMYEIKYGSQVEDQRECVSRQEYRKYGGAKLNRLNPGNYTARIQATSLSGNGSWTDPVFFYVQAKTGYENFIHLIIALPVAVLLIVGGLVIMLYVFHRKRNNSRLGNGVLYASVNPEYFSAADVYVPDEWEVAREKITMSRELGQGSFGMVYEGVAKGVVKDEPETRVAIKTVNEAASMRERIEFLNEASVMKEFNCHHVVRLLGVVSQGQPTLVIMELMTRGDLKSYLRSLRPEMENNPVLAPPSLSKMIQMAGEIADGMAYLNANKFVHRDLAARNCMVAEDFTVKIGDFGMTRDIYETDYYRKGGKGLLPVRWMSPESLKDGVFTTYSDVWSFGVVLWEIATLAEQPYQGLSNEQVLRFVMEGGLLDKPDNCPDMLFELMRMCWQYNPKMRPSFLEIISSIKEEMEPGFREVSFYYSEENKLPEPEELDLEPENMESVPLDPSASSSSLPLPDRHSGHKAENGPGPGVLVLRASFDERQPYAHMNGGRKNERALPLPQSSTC
quantity name: inhibition (%)
Just the number please, in %, no unit attached.

What does the record list as inhibition for O=C1Nc2ccc(-c3cccnc3)cc2C1=Cc1cc(Br)c(O)c(Br)c1 ?
3.8

What does the record list as inhibition for NS(=O)(=O)c1ccc(N/N=C2\C(=O)Nc3ccc(Cl)cc32)cc1 ?
6.7

What does the record list as inhibition for COC(=O)Nc1nc2cc(Oc3ccc(NC(=O)Nc4cccc(Br)c4)cc3)ccc2[nH]1 ?
3.08

What does the record list as inhibition for CN(C)C(=O)O[C@@H]1CN[C@@H](C#Cc2cc3ncnc(Nc4ccc(OCc5cccc(F)c5)c(Cl)c4)c3s2)C1 ?
-0.74

What does the record list as inhibition for CCOc1nccc2c1nc(-c1nonc1N)n2CC ?
7.26

###

biological target: NT-3 growth factor receptor (Homo sapiens) (UniProt Q16288); details: at 1 µM;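 also: mean TRKC inhibition from the GSK PKIS kinase inhibitor set, with assays run by Nanosyn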
Sequence (Q16288 32-839 limits assumed): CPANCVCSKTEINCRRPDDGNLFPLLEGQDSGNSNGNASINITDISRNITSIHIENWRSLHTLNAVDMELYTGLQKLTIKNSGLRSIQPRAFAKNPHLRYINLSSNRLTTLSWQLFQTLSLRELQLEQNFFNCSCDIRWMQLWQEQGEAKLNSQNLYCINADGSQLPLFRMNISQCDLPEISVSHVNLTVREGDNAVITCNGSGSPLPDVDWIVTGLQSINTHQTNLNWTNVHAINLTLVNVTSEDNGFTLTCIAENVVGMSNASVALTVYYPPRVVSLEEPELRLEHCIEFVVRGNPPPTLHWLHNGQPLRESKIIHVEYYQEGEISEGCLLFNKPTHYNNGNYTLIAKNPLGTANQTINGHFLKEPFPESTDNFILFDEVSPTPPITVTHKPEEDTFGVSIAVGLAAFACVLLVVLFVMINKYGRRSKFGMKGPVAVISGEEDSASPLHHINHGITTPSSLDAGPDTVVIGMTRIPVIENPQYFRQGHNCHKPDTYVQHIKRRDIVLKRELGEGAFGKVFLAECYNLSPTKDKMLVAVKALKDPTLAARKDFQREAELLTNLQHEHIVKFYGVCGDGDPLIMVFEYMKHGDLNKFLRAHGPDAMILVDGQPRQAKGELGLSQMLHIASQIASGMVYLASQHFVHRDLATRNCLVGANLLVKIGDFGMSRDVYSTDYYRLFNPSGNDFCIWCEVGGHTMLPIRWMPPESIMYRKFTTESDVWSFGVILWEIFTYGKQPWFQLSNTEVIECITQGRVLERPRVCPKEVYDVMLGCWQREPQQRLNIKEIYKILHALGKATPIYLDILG
Please provide measured inhibition for the entries that follow.
Just the number please, in %, no unit attached.

What does the record list as inhibition for O=C1Nc2ccccc2/C1=C/Nc1ccc2[nH]c(=O)[nH]c2c1 ?
74.2

What does the record list as inhibition for O=C1Nc2ccc(-c3cccnc3)cc2C1=Cc1cc(Br)c(O)c(Br)c1 ?
24.1

What does the record list as inhibition for CN(C)c1cc2c(Nc3ccc4c(cnn4Cc4ccccc4)c3)ncnc2cn1 ?
1.66

What does the record list as inhibition for COc1cccc(-n2nc(C)c3c(N/N=C(\C)c4ccncc4)ncnc32)c1 ?
-0.38

What does the record list as inhibition for NS(=O)(=O)c1cccc(-c2cc3ccncc3cc2OCc2ccccc2)c1 ?
6.72

What does the record list as inhibition for Cc1cc(Cl)cc2c1NC(=O)C2=NNc1ccc(S(N)(=O)=O)cc1 ?
3.59

###

target: Serine/threonine-protein kinase pim-2 (Homo sapiens); details: at 0.1 µM;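 also: reported value is the mean percent inhibition of PIM2, measured in the GSK PKIS kinase inhibitor set screen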
quantity name: inhibition
Note to self: number, then unit, no commentary.

What does the record list as inhibition for Cc1ccc2c(-c3ccnc(Nc4ccc5c(c4)OCCO5)n3)c(-c3ccc(C(F)(F)F)cc3)nn2n1 ?
0.44%

What does the record list as inhibition for Cc1cc(-c2ccccn2)cc(C)c1/C=C/c1cncc(-c2nn[nH]n2)c1 ?
0.01%

What does the record list as inhibition for ON=C1CCc2cc(-c3nc(C4CCNCC4)[nH]c3-c3ccncc3)ccc21 ?
0.25%

What does the record list as inhibition for CCS(=O)(=O)c1ccc(OC)c(Nc2nccc(N(C)c3ccc4c(C)n[nH]c4c3)n2)c1 ?
0.05%

What does the record list as inhibition for OCc1ccc(-c2nc(-c3ccccn3)c(-c3ccc4c(c3)OCO4)[nH]2)cc1 ?
0.72%

###

Please provide measured inhibition for the entries that follow.
biological target: Serine/threonine-protein kinase Nek6 (Homo sapiens) (UniProt Q9HC98); conditions: at 0.1 µM;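 also: values are the mean percent inhibition of NEK6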
Sequence (Q9HC98 whole entry): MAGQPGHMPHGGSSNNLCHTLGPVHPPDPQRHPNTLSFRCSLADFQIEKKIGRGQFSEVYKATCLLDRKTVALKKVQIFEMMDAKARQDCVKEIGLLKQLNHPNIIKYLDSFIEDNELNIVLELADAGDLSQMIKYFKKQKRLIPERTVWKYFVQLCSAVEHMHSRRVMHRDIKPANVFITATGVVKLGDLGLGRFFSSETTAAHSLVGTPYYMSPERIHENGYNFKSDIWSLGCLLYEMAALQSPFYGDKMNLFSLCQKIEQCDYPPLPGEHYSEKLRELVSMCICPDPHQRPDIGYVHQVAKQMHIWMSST
Just the number please, in %, no unit attached.

What does the record list as inhibition for Nc1nccc(C#Cc2cncnc2Nc2ccc(OCc3cccc(F)c3)c(Cl)c2)n1 ?
1.4

What does the record list as inhibition for CN(C)c1cc2c(Nc3ccc4c(cnn4Cc4ccccc4)c3)ncnc2cn1 ?
0.57

What does the record list as inhibition for Nc1nccc(-c2c(-c3ccc(F)cc3)nn3cc(C(F)(F)F)ccc23)n1 ?
0.29

What does the record list as inhibition for Cc1cc(Cl)cc2c1NC(=O)C2=NNc1ccc(S(N)(=O)=O)cc1 ?
0.31

What does the record list as inhibition for Cc1ccc(C(=O)NC2CC2)cc1-c1ccc2[nH]ncc2c1 ?
-3.09

What does the record list as inhibition for CCn1c(-c2nonc2N)nc2c(C#CC(C)(C)O)nc(OCCNC)cc21 ?
2.62

What does the record list as inhibition for COc1cccc(-n2ncc3c(N/N=C/c4ccc(S(C)(=O)=O)cc4)ncnc32)c1 ?
1.65

What does the record list as inhibition for COC(=O)Nc1nc2cc(Oc3ccc(NC(=O)Nc4cccc(Br)c4)cc3)ccc2[nH]1 ?
3.89

What does the record list as inhibition for Nc1nccc(-c2c(-c3ccc(F)cc3)ncn2CCCN2CCOCC2)n1 ?
3.27

What does the record list as inhibition for NS(=O)(=O)c1ccc(NC=C2C(=O)Nc3ccc4ncsc4c32)cc1 ?
1.57

What does the record list as inhibition for c1ccc(Cc2nc3ccc(Nc4ncnc5ccccc45)cc3[nH]2)cc1 ?
3.06

What does the record list as inhibition for O=C1Nc2ccc(-c3cccnc3)cc2C1=Cc1cc(Br)c(O)c(Br)c1 ?
4.82

What does the record list as inhibition for Cc1nc(-c2ccccc2)n2nc(NCCCN3CCOCC3)ncc12 ?
-0.18

What does the record list as inhibition for CCOc1nccc2c1nc(-c1nonc1N)n2CC ?
5.75

What does the record list as inhibition for OCc1ccc(-c2nc(-c3ccccn3)c(-c3ccc4c(c3)OCO4)[nH]2)cc1 ?
2.18

What does the record list as inhibition for COC(=O)c1cncc(/C=C/c2c(C)cc(O)cc2C)c1 ?
0.94

What does the record list as inhibition for COC(=O)c1ccc2c(c1)C(=Cc1cc(Br)c(O)c(Br)c1)C(=O)N2 ?
0.58

What does the record list as inhibition for Nc1ccc(C#Cc2cncnc2Nc2ccc(OCc3cccc(F)c3)c(Cl)c2)cc1 ?
2.73

What does the record list as inhibition for Cc1cc(O)cc(C)c1/C=C/c1cncc(C(=O)N(C)C)c1 ?
2.43

What does the record list as inhibition for NC(=O)c1cccc(Nc2nccc(Nc3cccc(F)c3)n2)c1 ?
0.35

What does the record list as inhibition for [O-][S+]1CCN(Cc2ccc(-c3ccc4ncnc(Nc5ccc(OCc6ccccc6)c(Cl)c5)c4c3)o2)CC1 ?
3.35

What does the record list as inhibition for COc1ccc2ncnc(Nc3ccc(OCc4ccccc4)cc3)c2c1 ?
4.45

What does the record list as inhibition for Cc1ccc(Nc2ccnc(Nc3cccc(C(N)=O)c3)n2)cc1O ?
4.22

What does the record list as inhibition for CCn1c(-c2nonc2N)nc2ccc(F)cc21 ?
5.03

What does the record list as inhibition for COc1cc2ncnc(Nc3ccc(C)c(O)c3)c2cc1OC ?
3.27

What does the record list as inhibition for Cc1ccc2c(-c3ccnc(Nc4cccc(C(F)(F)F)c4)n3)c(-c3ccccc3)nn2n1 ?
6.41

What does the record list as inhibition for COc1cc2ncnc(Nc3ccc4c(cnn4Cc4ccccc4)c3)c2cc1OC ?
9.32
